- System: ubiquitin-ubiquitin-ubiquitin-NS2/3-β-lactamase in Jurkat cells
- Experimental protocol: Cell-based NS2/3 cleavage assay, Jurkat cells, β-lactamase/CCF2 readout
- Parameters: species or system Hepatitis C virus
- Test settings: read-out: IC50, NS2/3 cleavage in cells, 5 hours treatment, 460 nm/530 nm ratio
pIC50: −log10 of the molar value.
Entries and their pIC50

{"Compound": "COC1=C2C[C@@H](C)C[C@H](OC)[C@H](O)[C@@H](C)/C=C(\\C)[C@H](OC(N)=O)[C@@H](OC)/C=C\\C=C(/C)C(=O)NC(=CC1=O)C2=O [Geldanamycin]", "pIC50": 7.40}
{"Compound": "C[C@@H]1C[C@H]2O[C@@H]2/C=C\\C=C\\C(=O)Cc2c(Cl)c(O)cc(O)c2C(=O)O1 [Radicicol]", "pIC50": 7.89}

All figures here come from patent US20030211469A1.
